Data origin, for the record: patent US11440906B2

# System: A375 Sensitive cells
# Assay explanation: Viability test, trypan blue exclusion, A375 Sensitive cells
# Format: cell-based, human
# Experimental parameters: Homo sapiens, A-375; 10 μM, 24 h; viable cells as percentage of DMSO control; read-out: Viab A375 10 μM/ 24 h
Would you mind telling me the reported viability at 10 µM of each entry?
// return numeric value only (unit: %, not printed)

# get_value(readout='viability at 10 µM', item= Nc1nc(Nc2ccccc2SSc2ccccc2Nc2nc(N)nc(-c3c(Br)cncc3Br)n2)nc(-c2c(Br)cncc2Br)n1 )
52.3

# get_value(readout='viability at 10 µM', item= N=c1nc(C(Cl)(Cl)Cl)nc(Nc2cc(Cl)ccc2O)[nH]1 )
24

# get_value(readout='viability at 10 µM', item= Nc1nc(Nc2ccccc2SSc2ccccc2Nc2nc(N)nc(-c3ccc4c(c3)OCO4)n2)nc(-c2ccc3c(c2)OCO3)n1 )
59.1

# get_value(readout='viability at 10 µM', item= N=C(NC(=N)c1cccc(C(F)(F)F)c1)Nc1nc2ccccc2s1 )
34.8

# get_value(readout='viability at 10 µM', item= CCOc1cccc(-c2nc(N)nc(Nc3ccccc3SSc3ccccc3Nc3nc(N)nc(-c4cccc(OCC)c4)n3)n2)c1 )
8.6

# get_value(readout='viability at 10 µM', item= N=C(NC(=N)c1ccnc(Br)c1)Nc1nc2ccccc2s1 )
18.1

# get_value(readout='viability at 10 µM', item= Nc1nc(Cc2ccccc2)nc(Nc2ccccc2SSc2ccccc2Nc2nc(N)nc(Cc3ccccc3)n2)n1 )
28.7

# get_value(readout='viability at 10 µM', item= Nc1nc(Nc2ccccc2SSc2ccccc2Nc2nc(N)nc(-c3ccccc3Cl)n2)nc(-c2ccccc2Cl)n1 )
38.3
